Data provenance is PubChem BioAssay (NCI).

# method: NCI Yeast Anticancer Drug Screen. Data for the sgs1 mgt1 strain (AID 161);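 note: 0% = growth of cultures given vehicle only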
# setupConditions: S. cerevisiae sgs1 mgt1 strain, at 50.0 µM (retest, dose inferred, filed as 5.0)
Compounds without any hit were thinned out: in the full panel of roughly 79,000, 15% have a hit. Calls of active or inactive are those of the source. Cut-off read from the data, not from the text of the source: active = growth inhibition above about 70%; inactive = the rest.
Bench note: report the call from class 1 = active, class 0 = inactive

Solved cases below.
| molecule | answerLabel |
| --- | --- |
| CC(C)(C)CC(C)(C)c1ccc(O)cc1 | class 1 |
| CCCCCCCCCCCC[As](=O)(O)O | class 0 |
| NNc1ccccc1Cl | class 1 |
| Cc1cc[n+](C2=C(Nc3cccc(C(F)(F)F)c3)C(=O)c3ccccc3C2=O)cc1 | class 0 |
| CCN(CCCl)c1cc(CN(C)C)cc(NC(=O)c2ccc(C(=O)Nc3cc(CN(C)C)cc(N(CC)CCCl)c3)cc2)c1 | class 1 |

Turning now to a further molecule:
Hi team, can someone confirm the assay call for CN(/N=C/c1ccc(Cl)cc1)P(=O)(N1CC1)N1CC1 ?
class 0
